# system.tested: Epidermal growth factor receptor (Homo sapiens)
# experimental.conditions: at 0.1 µM
# Description: GSK_PKIS: EGFR mean inhibition at 0.1 uM [Nanosyn]
Please go through the items and note down their inhibition.
Answers are plain numbers, in %.

                    structure_smiles_string  measurement
0  [O-][S+]1CCN(Cc2ccc(-c3ccc4ncnc(Nc5ccc(OCc6cccc(F)c6)c(Cl)c5)c4c3)o2)CC1         81.3
1  COc1cc(N2CCN(C(C)C)CC2)ccc1Nc1nc(Nc2ccc(F)cc2C(N)=O)c2cc[nH]c2n1          5.2
2  Cc1ccc2c(-c3ccnc(Nc4ccccc4)n3)c(-c3ccc(F)cc3)nn2n1         47.1

Dear colleague, could you send me inhibition for each of the items below? Thanks.
1. O=C(Nc1n[nH]c2cc(-c3ccc(F)cc3)ccc12)C1CC1
2. N#Cc1c(NC(=O)c2ccc(F)cc2)sc2c1CCCC2

stdout:
[-1.79, 0.63]

###

# system.tested: Dual specificity protein kinase TTK (Homo sapiens) (UniProt P33981);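 note: reported figures are mean TTK inhibition at 1 µM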
# Sequence (whole entry): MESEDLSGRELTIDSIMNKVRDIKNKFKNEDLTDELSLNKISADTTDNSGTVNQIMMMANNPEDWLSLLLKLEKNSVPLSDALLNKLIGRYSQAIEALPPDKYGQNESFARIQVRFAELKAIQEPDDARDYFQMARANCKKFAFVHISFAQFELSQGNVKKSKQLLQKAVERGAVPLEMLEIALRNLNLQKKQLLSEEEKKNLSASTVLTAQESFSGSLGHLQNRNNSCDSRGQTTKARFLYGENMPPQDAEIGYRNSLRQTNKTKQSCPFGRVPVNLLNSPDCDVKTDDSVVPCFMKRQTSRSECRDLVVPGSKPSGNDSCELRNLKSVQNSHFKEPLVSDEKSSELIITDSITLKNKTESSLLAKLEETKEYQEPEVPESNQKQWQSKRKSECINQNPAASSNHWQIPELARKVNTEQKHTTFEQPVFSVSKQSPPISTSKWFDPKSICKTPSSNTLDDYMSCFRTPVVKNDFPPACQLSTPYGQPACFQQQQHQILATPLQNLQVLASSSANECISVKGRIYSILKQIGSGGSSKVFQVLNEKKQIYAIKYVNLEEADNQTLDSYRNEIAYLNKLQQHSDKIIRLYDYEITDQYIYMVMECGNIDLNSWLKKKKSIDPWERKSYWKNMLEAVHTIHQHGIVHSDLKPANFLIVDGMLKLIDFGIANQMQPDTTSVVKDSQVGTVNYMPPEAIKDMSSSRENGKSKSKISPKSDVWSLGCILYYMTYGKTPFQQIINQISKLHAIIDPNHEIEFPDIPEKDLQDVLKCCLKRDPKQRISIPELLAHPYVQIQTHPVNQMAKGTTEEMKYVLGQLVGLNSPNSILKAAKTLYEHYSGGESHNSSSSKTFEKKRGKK
# experimental.conditions: at 1 µM
measurement.label: inhibition (%)
Answers are plain numbers, in %.

Field: example entries. Status: answers known.
>>> print(df.to_string())
                                   compound  measurement_label  units_label  measurement
0  Fc1ccc(-c2nn3ncccc3c2-c2ccnc(Nc3ccc4c(c3)OCCO4)n2)cc1         inhibition            %         19.2
1  Fc1cccc(COc2ccc(Nc3ncnc4sc(-c5ccco5)cc34)cc2Cl)c1         inhibition            %         6.39
2  CCNC(=O)O[C@H]1CN[C@H](C#Cc2cc3ncnc(Nc4ccc(OCc5cccc(F)c5)c(Cl)c4)c3s2)C1         inhibition            %         10.4
3  COc1cc(Nc2nccc(Nc3ccc4c(C)n[nH]c4c3)n2)cc(OC)c1OC         inhibition            %         8.41

Dear colleague, could you send me inhibition for each of the items below? Thanks.
1. Cc1cccc2c1NC(=O)/C2=N\Nc1ccc(S(N)(=O)=O)cc1
2. CCn1cc(-c2ccnc3[nH]ccc23)c(-c2cccc(NC(=O)Nc3ccc(OCc4ccccc4)cc3)c2)n1
3. CCOc1ccc2c(-c3ccnc(Nc4cccc(C(F)(F)F)c4)n3)cnn2n1
4. Nc1ncc(-c2cccc(S(N)(=O)=O)c2)c2scc(-c3ccc(F)c(Cl)c3)c12
5. COc1ccc(-c2nn3ncccc3c2-c2ccnc(Nc3ccc4c(c3)OCCO4)n2)cc1
6. COc1cccc(-n2ncc3c(N/N=C/c4ccc(F)cc4)ncnc32)c1

stdout:
1. 9.17
2. 3.41
3. 4.11
4. 14.3
5. 11.6
6. 10.9

Dear colleague, could you send me inhibition for each of the items below? Thanks.
1. COC(=O)Nc1nc2ccc(Oc3ccc(NC(=O)Nc4cccc(Cl)c4)cc3)cc2[nH]1
2. COc1ccc2c(-c3ccnc(Nc4cccc(OC(F)(F)F)c4)n3)cnn2n1
3. CC(=O)NCc1cccc(C#Cc2cncnc2Nc2ccc(OCc3cccc(F)c3)c(Cl)c2)c1
4. CCN1CCC(CC(=O)Nc2n[nH]c3nnc(-c4cccc(F)c4F)cc23)CC1
5. COc1cc(/C=N/Nc2ncnc3[nH]ncc23)ccc1O
6. CN(C)CCOc1ccc(-c2nc(-c3ccncc3)c(-c3ccc4c(c3)CC/C4=N\O)[nH]2)cc1
7. COC(=O)Nc1nc2ccc(S(=O)(=O)c3ccc(NC(=O)Nc4cc(C(F)(F)F)ccc4F)cc3)cc2[nH]1

stdout:
[3.42, 17.1, -8.1, 1.38, 13.4, 7.21, 10.5]

Dear colleague, could you send me inhibition for each of the items below? Thanks.
1. Cc1ccc2c(-c3ccnc(Nc4ccccc4)n3)c(-c3ccc(F)cc3)nn2n1
2. COc1ccc(-c2cc3c(N)ncnc3o2)cc1

stdout:
1: 6.11; 2: 0.09

Dear colleague, could you send me inhibition for each of the items below? Thanks.
1. CC1=C(C(=O)Nc2cc(Cl)c3[nH]ncc3c2)C(c2ccc(C(F)(F)F)cc2)CC(=O)N1 (stereo not drawn)
2. Cc1ccc(O)cc1Nc1ccnc2cc(-c3ccccn3)ccc12
3. COc1cccc(-c2c[nH]c3c(N/N=C/c4ccncc4)ncnc23)c1
4. CC(C)COC(=O)c1ccc2c(c1)/C(=C/Nc1ccc(S(N)(=O)=O)cc1)C(=O)N2
5. FC(F)(F)c1cccc(-c2nn3ncccc3c2-c2ccnc(Nc3ccc4c(c3)OCCO4)n2)c1
6. CCn1c(-c2nonc2N)nc2ccccc21
7. O=C(O[C@H]1CN[C@H](C#Cc2cc3ncnc(Nc4ccc(Cc5ccccc5)cc4)c3s2)C1)N1CCOCC1

stdout:
5.07
7.97
10.6
70.1
14.6
7.51
1.6

Dear colleague, could you send me inhibition for each of the items below? Thanks.
1. CN1CCC(n2cnc(-c3ccc(F)cc3)c2-c2ccnc(N)n2)CC1
2. COc1ccc2[nH]c3c4[nH]c5ccc(OC)cc5c4c4c(c3c2c1)C(=O)NC4=O

stdout:
-7.5
34.6
